src = ChEMBL document CHEMBL1811907

Field: Ratio CC50/IC50. Provide a value for each of the compounds that follow.
# experimentalProtocol: Ratio of CC50 for human follicular small-cell lymphocytic leukemia cells to IC50 for intracellular chymotrypsin-like activity of 20S proteasome in human HEK293 cells

Below, each entry is followed by its recorded Ratio CC50/IC50 result.
INSERT INTO measurements (linenotation, readoutname, reportedmeasurement) VALUES
  ('CC(C)C[C@H](NC(=O)[C@H](C)N)B(O)O', 'Ratio CC50/IC50', '<0.3'),
  ('CC[C@H](N)C(=O)N[C@@H](CC(C)C)B(O)O', 'Ratio CC50/IC50', '<0.2'),
  ('CC(C)C[C@H](NC(=O)[C@H](CO)NC(=O)c1cnccn1)B(O)O', 'Ratio CC50/IC50', 0.08),
  ('CC(C)C[C@H](NC(=O)[C@@H](N)[C@@H](C)O)B(O)O', 'Ratio CC50/IC50', '<0.3'),
  ('CCC[C@H](N)C(=O)N[C@@H](CC(C)C)B(O)O', 'Ratio CC50/IC50', '<0.1'),
  ('CC(C)C[C@H](NC(=O)[C@@H](N)Cc1ccc(O)cc1)B(O)O', 'Ratio CC50/IC50', '<0.02');

Dear reader, for each entry below, please note its Ratio CC50/IC50.
1. CC(C)C[C@H](NC(=O)CN)B(O)O
2. CC(C)C[C@H](NC(=O)[C@@H](N)Cc1cccc2ccccc12)B(O)O
3. CC(C)C[C@H](NC(=O)[C@@H](N)Cc1cc(F)cc(F)c1)B(O)O
4. CC(C)C[C@H](NC(=O)[C@@H](N)Cc1c[nH]c2ccccc12)B(O)O
5. CC(C)C[C@H](NC(=O)[C@@H](NC(=O)c1cnccn1)[C@@H](C)O)B(O)O

[out]
1. <0.07
2. 0.07
3. 0.06
4. <0.4
5. 0.12
